system: johnsongrass (Sorghum halepense); test: Test C pre-/postemergence: johnsongrass; type: in vivo; conditions: Postemergence, 125 g ai/ha; scale 0 to 100, 0 no effect, 100 complete control
Plant response rating, Johnsongrass values for the molecules below.
assay endpoint: Plant response rating, Johnsongrass

molecule | numeric readout
Cc1nn(-c2ccnc(C(F)(F)F)c2)nc1Cc1ccnc(C(F)(F)F)c1 [Compound 137] | 80
Cc1nn(-c2ccc(C(F)(F)F)cc2)nc1Cc1cccc(C(F)(F)F)c1 [Compound 124] | 45
CCOc1nn(-c2ccc(F)cc2)nc1Cc1ccnc(C(F)F)c1 [Compound 195] | 95
Fc1ccc(-n2nc(Cc3ccnc(C(F)(F)F)c3)c(OCC(F)(F)F)n2)cc1 [Compound 142] | 80

###

tested on: winter wheat (Triticum aestivum); assay: Test C pre-/postemergence: winter wheat; format: in vivo; conditions: Postemergence, 125 g ai/ha; scale 0 to 100, 0 no effect, 100 complete control
The entries below come with measured Plant response rating, Wheat values attached.
assay endpoint: Plant response rating, Wheat

compound | assay endpoint | numeric readout
CCCc1nn(-c2ccc(F)cc2)nc1Cc1ccnc(C(F)(F)F)c1 [Compound 153] | Plant response rating, Wheat | 30
Cc1nn(-c2ccc(F)cc2)nc1Cc1ccnc(C(F)(F)F)c1 [Compound 16] | Plant response rating, Wheat | 25
CCCc1nn(-c2ccc(C(F)(F)F)c(F)c2)nc1Oc1ccnc(C(F)(F)F)c1 [Compound 185] | Plant response rating, Wheat | 15
Fc1ccc(-n2nc(Cc3ccnc(C(F)(F)F)c3)c(OCC(F)(F)F)n2)cc1 [Compound 142] | Plant response rating, Wheat | 40

###

tested on: crabgrass, large (large crabgrass, Digitaria sanguinalis); assay: Test A pre-/postemergence: crabgrass, large; assay type: in vivo; settings: Preemergence, 125 g ai/ha; 0 to 100 scale (0 no effect, 100 complete control)
assay endpoint: Plant response rating, Crabgrass, Large

compound | result
Cc1nn(-c2ccc(I)cc2)nc1C(=O)c1cccc(C(F)(F)F)c1 [Compound 61] | 0
Cc1nn(-c2ccc(C(F)(F)F)cc2)nc1Cc1cnn(CC(F)(F)F)c1 [Compound 51] | 0
Cc1nn(-c2ccc(F)cc2)nc1Cn1ccc(C(F)(F)F)n1 [Compound 2] | 10
Cc1nn(-c2cnc(Cl)cn2)nc1C(=O)c1cccc(C(F)(F)F)c1 [Compound 50] | 10
Cc1nn(-c2ccc(Cl)cc2)nc1C(=O)c1cccc(C(F)(F)F)c1 [Compound 42] | 10

###

system: foxtail, giant (giant foxtail, Setaria faberii); assay: Test A pre-/postemergence: foxtail, giant; assay type: in vivo; conditions: Postemergence, 125 g ai/ha; 0 to 100 scale, 0 is no effect, 100 is complete control
Each item that follows carries a reported Foxtail, Giant plant response rating.

mol | Foxtail, Giant plant response rating
Cc1nn(-c2ccccc2)nc1C(=O)c1cccc(C(F)(F)F)c1 | 20
Cc1nn(-c2cccc(I)c2)nc1C(=O)c1cccc(C(F)(F)F)c1 | 0
CSc1ccccc1-n1nc(C)c(C(=O)c2cccc(C(F)(F)F)c2)n1 | 0
Cc1nn(-c2ccc(F)cc2)nc1Oc1cccc(OC(F)(F)F)c1 | 50
Cc1nn(-c2cccc([N+](=O)[O-])c2)nc1C(=O)c1cccc(C(F)(F)F)c1 | 0

###

tested on: foxtail, giant (giant foxtail, Setaria faberii); experiment: Test C pre-/postemergence: foxtail, giant; format: in vivo; conditions: Preemergence, 125 g ai/ha; scale 0 to 100, 0 no effect, 100 complete control
Reported Plant response rating, Foxtail, Giant values follow for various compounds

mol | Plant response rating, Foxtail, Giant
Cc1nn(-c2ccc(F)c(F)c2)nc1Oc1ccnc(C(F)(F)F)c1 | 100
Cc1nn(-c2ccc(F)c(C(F)(F)F)c2)nc1Oc1ccnc(C(F)(F)F)c1 | 100
Fc1ccc(-n2nc(Cc3ccnc(C(F)(F)F)c3)c(OCC(F)(F)F)n2)cc1 | 100
CCc1nn(-c2ccc(F)cc2)nc1Oc1ccnc(C(F)(F)F)c1 | 100
CCOc1nn(-c2ccc(F)cc2)nc1Cc1ccnc(C(F)F)c1 | 100
Cc1nn(-c2ccc(F)cc2)nc1Oc1ccnc(C(F)(F)F)c1 | 98

###

Entries and their measured Plant response rating, Barnyardgrass follow.
test system: barnyardgrass (Echinochloa crus-galli); assay: Test A pre-/postemergence: barnyardgrass; format: in vivo; conditions: Preemergence, 125 g ai/ha; 0 to 100 scale where 0 is no effect and 100 is complete control
assay endpoint: Plant response rating, Barnyardgrass

mol | numeric readout
Cc1nn(-c2ccc(F)cc2)nc1Oc1cc(C(F)(F)F)ccn1 | 0
CCCc1nn(-c2ccc(C(F)(F)F)c(F)c2)nc1Oc1ccnc(C(F)(F)F)c1 | 100
CCOc1nn(-c2ccc(F)cc2)nc1Cc1ccnc(C(F)F)c1 | 90
CCc1nn(-c2ccc(C(F)(F)F)cc2)nc1Cn1cc(C(F)(F)F)nc1Cl | 20
CCc1nn(-c2ccc(F)cc2)nc1Cc1cccc(C(F)(F)F)c1 | 0
CCCc1nn(-c2ccc(F)cc2)nc1Cc1ccnc(C(F)(F)F)c1 | 100
CC(C)Cc1nn(-c2ccc(C(F)(F)F)cc2)nc1Oc1ccnc(C(F)F)c1 | 0
Fc1ccc(-n2nc(F)c(Cc3ccnc(C(F)(F)F)c3)n2)cc1 | 10

###

tested on: barley (winter barley, Hordeum vulgare); experiment: Test C postemergence: barley; type: in vivo; details: 250 g ai/ha, scale 0 to 100
assay endpoint: Plant response rating, Barley

mol | numeric readout
Fc1ccc(-n2nc(Cc3ccnc(C(F)(F)F)c3)c(OCC(F)(F)F)n2)cc1 | 45
Cc1nn(-c2ccc(F)c(F)c2)nc1Oc1ccnc(C(F)(F)F)c1 | 45
Cc1nn(-c2ccc(F)cc2)nc1Cc1ccnc(C(F)(F)F)c1 | 45
Cc1nn(-c2ccc(F)cc2)nc1Oc1ccnc(C(F)(F)F)c1 | 50

###

Test system: wheat (Triticum aestivum)
Assay: Test A pre-/postemergence: wheat
Type: in vivo
Settings: Preemergence, 125 g ai/ha; 0 to 100 scale where 0 is no effect and 100 is complete control
Source text: Seeds of barnyardgrass (Echinochloa crus-galli), crabgrass, large (large crabgrass, Digitaria sanguinalis), foxtail, giant (giant foxtail, Setaria faberii), morningglory (Ipomoea spp.), pigweed (Amaranthus retroflexus), velvetleaf (Abutilon theophrasti), wheat (Triticum aestivum), and corn (Zea mays) were planted into a blend of loam soil and sand and treated preemergence with a directed soil spray using test chemicals formulated in a non-phytotoxic solvent mixture which included a surfactant. […]
# Plant response rating, Wheat annotations
assay endpoint: Plant response rating, Wheat

compound | numeric readout
CCc1nn(-c2ccc(C(F)(F)F)cn2)nc1Cc1cccc(C(F)(F)F)c1 [Compound 108] | 0
Cc1nn(-c2ccc(Br)cc2)nc1C(=O)c1cccc(C(F)(F)F)c1 [Compound 92] | 0
Cc1nn(-c2ccccc2I)nc1C(=O)c1cccc(C(F)(F)F)c1 [Compound 91] | 0
CC(C)Cc1nn(-c2ccc(C(F)(F)F)cc2)nc1Oc1ccnc(C(F)(F)F)c1 [Compound 186] | 0
CCOc1nn(-c2ccc(Br)cc2)nc1Cc1ccnc(C(F)(F)F)c1 [Compound 189] | 20
Fc1ccc(-n2nc(Cc3ccnc(C(F)(F)F)c3)c(OCC(F)(F)F)n2)cc1 [Compound 142] | 70
CCCc1nn(-c2ccc(F)cc2)nc1Cc1ccnc(C(F)(F)F)c1 [Compound 153] | 50
Cc1nn(-c2ccnc(C(F)(F)F)c2)nc1Cc1ccnc(C(F)(F)F)c1 [Compound 137] | 0
CCc1nn(-c2ccc(F)cc2F)nc1Oc1ccnc(C(F)(F)F)c1 [Compound 178] | 0

###

tested on: morningglory (Ipomoea spp.); assay: Test A pre-/postemergence: morningglory; assay type: in vivo; settings: Ipomoea, post-emergence, 240 h; Postemergence, 125 g ai/ha; 0 to 100 scale, 0 is no effect, 100 is complete control; read-out: Morningglory plant response rating
Overview of reported pest or weed control at 125 g/ha across a group of compounds:

compound | pest or weed control at 125 g/ha / %
COc1nn(-c2ccc(C(F)(F)F)cc2)nc1Cn1ccc(C(F)(F)F)n1 [Compound 17] | 50
OCc1nn(-c2ccc(C(F)(F)F)cc2)nc1Oc1cccc(OC(F)(F)F)c1 [Compound 114] | 60
CCc1nn(-c2ccc(C(F)(F)F)cc2)nc1Oc1cccc(OC(F)(F)F)c1 [Compound 125] | 60
Cc1nn(-c2ccc(F)cc2)nc1Cc1ccnc(C(F)(F)F)c1 [Compound 16] | 80

###

Consider the following compounds and their measured Plant response rating, Ryegrass, Italian readings.
test system: ryegrass, Italian (Italian ryegrass, Lolium multiflorum); assay: Test C pre-/postemergence: ryegrass, Italian; type: in vivo; details: Preemergence, 31 g ai/ha; scale of 0 to 100, 0 is no effect, 100 is complete control

compound | target desc | Plant response rating, Ryegrass, Italian
Cc1nn(-c2ccc(F)c(F)c2)nc1Oc1ccnc(C(F)(F)F)c1 [Compound 145] | ryegrass, Italian (Italian ryegrass, Lolium multiflorum) | 5
Cc1nn(-c2ccc(C(F)(F)F)cc2)nc1Cc1ccnc(C(F)(F)F)c1 [Compound 47] | ryegrass, Italian (Italian ryegrass, Lolium multiflorum) | 35
Fc1ccc(-n2nc(Cc3ccnc(C(F)(F)F)c3)c(OCC(F)(F)F)n2)cc1 [Compound 142] | ryegrass, Italian (Italian ryegrass, Lolium multiflorum) | 30
Cc1nn(-c2ccc(F)c(C(F)(F)F)c2)nc1Oc1ccnc(C(F)(F)F)c1 [Compound 147] | ryegrass, Italian (Italian ryegrass, Lolium multiflorum) | 10
